Documented inhibition across a set of compounds
# System Name: Serine/threonine-protein kinase DCLK2 (Homo sapiens) (UniProt Q8N568);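 further: reported value is the mean percent inhibition of DCAMKL2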
# Sequence (Q8N568 whole entry): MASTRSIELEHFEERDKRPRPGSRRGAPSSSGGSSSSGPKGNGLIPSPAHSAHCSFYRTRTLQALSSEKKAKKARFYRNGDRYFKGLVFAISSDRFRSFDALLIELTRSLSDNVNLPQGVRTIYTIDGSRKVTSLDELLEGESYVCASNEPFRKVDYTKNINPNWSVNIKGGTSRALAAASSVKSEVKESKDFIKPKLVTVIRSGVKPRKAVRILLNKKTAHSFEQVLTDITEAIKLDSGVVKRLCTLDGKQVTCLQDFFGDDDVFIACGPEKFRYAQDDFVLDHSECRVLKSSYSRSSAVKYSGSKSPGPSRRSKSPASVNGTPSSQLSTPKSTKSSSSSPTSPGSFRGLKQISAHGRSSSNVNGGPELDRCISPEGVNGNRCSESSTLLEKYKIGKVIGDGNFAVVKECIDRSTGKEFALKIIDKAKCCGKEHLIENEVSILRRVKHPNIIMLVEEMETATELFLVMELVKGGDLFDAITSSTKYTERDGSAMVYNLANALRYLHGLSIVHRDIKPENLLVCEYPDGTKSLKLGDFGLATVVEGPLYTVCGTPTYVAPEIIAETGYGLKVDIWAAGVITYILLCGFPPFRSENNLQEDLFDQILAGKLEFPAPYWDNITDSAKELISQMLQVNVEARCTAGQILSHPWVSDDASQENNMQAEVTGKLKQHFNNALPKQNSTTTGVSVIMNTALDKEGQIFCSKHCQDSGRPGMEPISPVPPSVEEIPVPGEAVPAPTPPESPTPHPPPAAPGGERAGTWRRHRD
# Test Conditions: at 0.1 µM
Report the value in % with no unit label.

Example compounds with recorded inhibition:
[[record]]
line_notation = "NC(=O)Cc1ccccc1Oc1nccc(-c2c(-c3ccc(F)cc3)ncn2C2CCNCC2)n1"
system_name = "Serine/threonine-protein kinase DCLK2 (Homo sapiens) (UniProt Q8N568)"
unit_of_measurement = "%"
endpoint_result = 0.97

[[record]]
line_notation = "COc1cccc(-n2cnc3c(N/N=C/c4ccncc4)ncnc32)c1"
system_name = "Serine/threonine-protein kinase DCLK2 (Homo sapiens) (UniProt Q8N568)"
unit_of_measurement = "%"
endpoint_result = -3.07

[[record]]
line_notation = "CCS(=O)(=O)c1ccc(OC)c(Nc2ncc(-c3cccc(-c4ccccc4F)c3)o2)c1"
system_name = "Serine/threonine-protein kinase DCLK2 (Homo sapiens) (UniProt Q8N568)"
unit_of_measurement = "%"
endpoint_result = 1.37

[[record]]
line_notation = "NS(=O)(=O)c1ccc(N/N=C2\\C(=O)Nc3ccc(-c4cnco4)cc32)cc1"
system_name = "Serine/threonine-protein kinase DCLK2 (Homo sapiens) (UniProt Q8N568)"
unit_of_measurement = "%"
endpoint_result = -5.27

[[record]]
line_notation = "O=C(Nc1n[nH]c2nc(-c3ccc(O)cc3)c(Br)cc12)C1CC1"
system_name = "Serine/threonine-protein kinase DCLK2 (Homo sapiens) (UniProt Q8N568)"
unit_of_measurement = "%"
endpoint_result = 0.9


Please indicate inhibition recorded for "Fc1ccc(-c2nc3n(c2-c2ccncc2)CCS3)cc1" -0.75

====

# Tested on: Proto-oncogene tyrosine-protein kinase receptor Ret (Homo sapiens), P07949 [Y791F]
# Sequence (P07949 whole entry Y791F): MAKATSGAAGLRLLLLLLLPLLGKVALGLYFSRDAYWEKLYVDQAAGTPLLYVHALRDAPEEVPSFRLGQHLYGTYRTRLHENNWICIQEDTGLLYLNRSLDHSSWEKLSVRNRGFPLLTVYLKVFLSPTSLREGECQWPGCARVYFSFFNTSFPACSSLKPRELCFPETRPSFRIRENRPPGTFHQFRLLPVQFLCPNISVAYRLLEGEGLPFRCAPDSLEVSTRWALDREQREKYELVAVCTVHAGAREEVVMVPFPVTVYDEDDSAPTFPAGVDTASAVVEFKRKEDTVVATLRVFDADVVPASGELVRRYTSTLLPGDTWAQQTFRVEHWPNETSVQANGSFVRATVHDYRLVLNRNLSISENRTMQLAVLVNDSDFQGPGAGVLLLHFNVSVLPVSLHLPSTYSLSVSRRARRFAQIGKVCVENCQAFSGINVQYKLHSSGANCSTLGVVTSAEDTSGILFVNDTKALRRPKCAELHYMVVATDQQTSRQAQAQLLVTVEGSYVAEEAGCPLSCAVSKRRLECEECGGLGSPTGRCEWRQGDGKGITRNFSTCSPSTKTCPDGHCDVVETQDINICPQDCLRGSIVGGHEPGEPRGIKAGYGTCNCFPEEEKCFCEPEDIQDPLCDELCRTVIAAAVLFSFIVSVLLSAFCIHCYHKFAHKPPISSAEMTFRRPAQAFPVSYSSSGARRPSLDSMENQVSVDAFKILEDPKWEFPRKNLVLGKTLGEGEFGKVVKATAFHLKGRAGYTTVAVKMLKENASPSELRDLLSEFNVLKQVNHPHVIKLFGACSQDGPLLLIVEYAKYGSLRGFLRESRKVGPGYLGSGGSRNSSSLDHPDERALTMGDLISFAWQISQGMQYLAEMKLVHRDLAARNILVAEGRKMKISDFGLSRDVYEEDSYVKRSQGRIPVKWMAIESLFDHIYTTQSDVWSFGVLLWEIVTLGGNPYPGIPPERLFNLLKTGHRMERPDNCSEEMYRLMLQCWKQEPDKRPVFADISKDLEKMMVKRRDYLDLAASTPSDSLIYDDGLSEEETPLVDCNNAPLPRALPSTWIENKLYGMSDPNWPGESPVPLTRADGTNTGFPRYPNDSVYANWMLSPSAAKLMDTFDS
# Test Conditions: at 1 µM
Hi, to clarify the labels: Criterion met covers inhibition from 30% upward, Criterion not met covers anything below 30%.

Record excerpt, results attached:
[[record]]
compound = "O=C1Nc2ccccc2/C1=C/Nc1ccc(-n2cncn2)cc1"
qualitative_label = "Criterion met"

[[record]]
compound = "Fc1ccc(-c2ncn(CCCN3CCOCC3)c2-c2ccncc2)cc1"
qualitative_label = "Criterion not met"

[[record]]
compound = "COc1ccc2cc(-c3c(-c4ccncc4)nc(-c4ccc([S+](C)[O-])cc4C)n3C)ccc2c1 (stereo unspecified)"
qualitative_label = "Criterion not met"

[[record]]
compound = "COc1ccc(C2=C(N3CCc4ccccc43)C(=O)NC2=O)cc1"
qualitative_label = "Criterion not met"

[[record]]
compound = "NC(=O)c1cc(-c2ccncc2)cc(-c2ccccc2)c1N"
qualitative_label = "Criterion met"


Here is another compound to look at.
hey, is inhibition for this one >= 30%? "c1ccc(-c2n[nH]cc2-c2ccnc(-c3ccc(OCCN4CCOCC4)cc3)c2)nc1" Criterion not met

====

# System Name: Serine/threonine-protein kinase Nek1 (Homo sapiens) (UniProt Q96PY6);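 further: mean percent inhibition of NEK1 kinase, from the GSK PKIS (published kinase inhibitor set) screening panel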
# Sequence (whole entry): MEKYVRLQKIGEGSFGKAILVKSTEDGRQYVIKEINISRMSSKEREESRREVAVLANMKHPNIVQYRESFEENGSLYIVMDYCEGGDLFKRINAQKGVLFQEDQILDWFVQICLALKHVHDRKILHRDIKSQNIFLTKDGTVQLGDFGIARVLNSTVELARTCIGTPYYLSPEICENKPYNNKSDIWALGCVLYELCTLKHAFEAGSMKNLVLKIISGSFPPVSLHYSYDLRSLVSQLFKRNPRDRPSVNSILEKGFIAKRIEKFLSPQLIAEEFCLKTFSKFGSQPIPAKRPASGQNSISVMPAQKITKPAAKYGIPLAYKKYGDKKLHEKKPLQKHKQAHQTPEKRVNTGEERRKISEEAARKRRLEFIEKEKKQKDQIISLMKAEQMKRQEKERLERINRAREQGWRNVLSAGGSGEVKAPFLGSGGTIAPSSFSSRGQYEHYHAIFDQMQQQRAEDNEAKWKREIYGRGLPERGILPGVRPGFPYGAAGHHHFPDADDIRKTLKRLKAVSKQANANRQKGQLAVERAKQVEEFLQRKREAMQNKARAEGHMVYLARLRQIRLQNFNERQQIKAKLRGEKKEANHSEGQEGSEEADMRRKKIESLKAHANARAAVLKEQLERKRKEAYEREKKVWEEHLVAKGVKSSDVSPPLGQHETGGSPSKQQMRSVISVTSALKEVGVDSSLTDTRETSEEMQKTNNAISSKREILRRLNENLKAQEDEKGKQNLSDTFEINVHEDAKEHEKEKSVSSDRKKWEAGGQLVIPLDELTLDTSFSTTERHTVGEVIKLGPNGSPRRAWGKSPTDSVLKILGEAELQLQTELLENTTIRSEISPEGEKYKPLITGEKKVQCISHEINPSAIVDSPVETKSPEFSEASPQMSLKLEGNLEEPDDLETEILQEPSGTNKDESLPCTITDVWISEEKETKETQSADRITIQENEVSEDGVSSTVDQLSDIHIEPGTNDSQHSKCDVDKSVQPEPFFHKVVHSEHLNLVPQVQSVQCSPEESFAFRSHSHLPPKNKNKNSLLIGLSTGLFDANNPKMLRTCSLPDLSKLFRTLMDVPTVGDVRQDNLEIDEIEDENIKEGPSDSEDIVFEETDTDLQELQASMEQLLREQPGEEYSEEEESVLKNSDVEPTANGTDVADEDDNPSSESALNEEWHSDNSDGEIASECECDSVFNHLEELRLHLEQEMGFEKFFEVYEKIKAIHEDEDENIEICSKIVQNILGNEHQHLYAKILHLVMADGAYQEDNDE
# Test Conditions: at 0.1 µM
Quantity: inhibition
Reply with a number, then the unit it belongs to.

Example compounds with recorded inhibition:
[[record]]
line_notation = "CN1CCN(CCCNc2nc3ccc(Oc4ccc(NC(=O)Nc5cc(C(F)(F)F)ccc5F)cc4)cc3[nH]2)CC1"
quantity = "inhibition"
endpoint_result = "1.41%"

[[record]]
line_notation = "C[C@@H](Oc1cc(-n2cnc3ccc(OC4CCN(C)CC4)cc32)sc1C(N)=O)c1ccccc1Cl"
quantity = "inhibition"
endpoint_result = "9.13%"

[[record]]
line_notation = "Fc1ccc(-c2ncn(C3CCNCC3)c2-c2ccnc(Oc3ccc(F)c(F)c3)n2)cc1"
quantity = "inhibition"
endpoint_result = "2.19%"


Please indicate inhibition recorded for "O=C1Nc2ccccc2/C1=C/Nc1ccc(-n2cncn2)cc1" 2.46%

Please indicate inhibition recorded for "CCc1ccc(Oc2nccc(-c3c(-c4ccc(F)cc4)ncn3C3CCNCC3)n2)cc1" 2.27%

Please indicate inhibition recorded for "CCc1nccc2c1nc(-c1nonc1N)n2CC" 0.36%

Please indicate inhibition recorded for "COC(=O)Nc1nc2ccc(Sc3ccc(NC(=O)Nc4cc(C(F)(F)F)ccc4F)cc3)cc2[nH]1" -0.58%

Data origin, for the record: ChEMBL document CHEMBL1961873
